- experimentNotes: physchem
Please use Yes whenever chromatographic logP is not below 2, and No whenever it is.

> print(dat)
                                    compound  assignedclass
 1  CC(=O)c1ccc(C2=NOC(O)(C(F)(F)F)C2)cc1 (stereo not shown) [Ia-038]            Yes
 2  Nc1ccc(C2=NOC(O)(C(F)(F)F)C2)cc1 (stereo not shown) [Ia-114]             No
 3  COC(=O)c1ccc(C2=NOC(O)(C(F)(F)Cl)C2)cc1 (stereo not shown) [Ib-049]            Yes
 4  CCc1noc(-c2ccc(C3=NOC(O)(C(F)(F)F)C3)cc2)n1 (stereo not shown) [Ia-093]            Yes
 5  COC(=O)c1ccc(C(=O)CC(=O)C(F)(F)Cl)cc1 [Compound 1b-04]            Yes
 6  OC1(C(F)(F)F)CC(c2ccc(-c3ccc(F)cc3)cc2)=NO1 (stereo not shown) [Ia-075]            Yes
 7  CC(O)c1ccc(C2=NOC(O)(C(F)(F)F)C2)cc1 (stereo not shown) [Ia-044]             No
 8  OC1(C(F)(F)F)CC(c2ccc(-c3cncnc3)cc2)=NO1 (stereo not shown) [Ia-087]             No
 9  O=C(O)c1ccc(C2=NOC(O)(C(F)(F)Cl)C2)cc1 (stereo not shown) [Ib-048]             No
10  CON=C(C)c1ccc(C2=NOC(O)(C(F)(F)F)C2)cc1 (stereo not shown) [Ia-037]            Yes
11  O=C(Nc1ccc(F)cc1F)c1ccc(C2=NOC(O)(C(F)(F)Cl)C2)cc1 (stereo not shown) [Ib-030]            Yes
12  CN(C(=O)c1ccc(C(=O)/C=C(\O)C(F)(F)F)cc1)c1ccccc1 [Compound 1b-01]            Yes
13  NCc1ccc(C2=NOC(O)(C(F)(F)F)C2)cc1 (stereo not shown) [Ia-112]             No
14  CCc1noc(-c2ccc(C(=O)/C=C(\O)C(F)(F)F)cc2)n1 [Compound 1b-02]            Yes
15  OC1(C(F)(F)F)CC(c2ccc(C#CC3CC3)cc2)=NO1 (stereo not shown) [Ia-031]            Yes
16  Cc1ccc(C)n1-c1ccc(C(=O)CC(=O)C(F)(F)F)cc1 [Compound 1b-35]            Yes
